assaySystem: PRMT5/MEP50 complex (Homo sapiens)
Construct: purchased Reaction Biology Corporation
Sequence (O14744 2-637 limits assumed): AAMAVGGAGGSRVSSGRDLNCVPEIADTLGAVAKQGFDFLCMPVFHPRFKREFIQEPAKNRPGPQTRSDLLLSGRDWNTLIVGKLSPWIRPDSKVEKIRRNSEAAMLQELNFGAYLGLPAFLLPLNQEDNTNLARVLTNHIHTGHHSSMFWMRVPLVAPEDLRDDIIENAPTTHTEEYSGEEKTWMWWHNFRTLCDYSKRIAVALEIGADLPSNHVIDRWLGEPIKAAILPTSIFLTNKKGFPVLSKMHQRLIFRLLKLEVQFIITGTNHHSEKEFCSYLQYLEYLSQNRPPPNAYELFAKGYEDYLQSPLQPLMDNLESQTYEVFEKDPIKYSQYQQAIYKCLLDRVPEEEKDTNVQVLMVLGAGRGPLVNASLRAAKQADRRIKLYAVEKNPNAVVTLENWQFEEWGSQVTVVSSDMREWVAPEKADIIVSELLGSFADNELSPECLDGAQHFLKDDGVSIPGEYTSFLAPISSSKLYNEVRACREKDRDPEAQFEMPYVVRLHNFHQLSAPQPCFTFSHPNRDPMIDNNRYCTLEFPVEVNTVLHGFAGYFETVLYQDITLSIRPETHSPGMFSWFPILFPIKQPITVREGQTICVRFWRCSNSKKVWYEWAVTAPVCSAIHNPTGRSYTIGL
Sequence (Q9BQA1 2-342 partner limits assumed): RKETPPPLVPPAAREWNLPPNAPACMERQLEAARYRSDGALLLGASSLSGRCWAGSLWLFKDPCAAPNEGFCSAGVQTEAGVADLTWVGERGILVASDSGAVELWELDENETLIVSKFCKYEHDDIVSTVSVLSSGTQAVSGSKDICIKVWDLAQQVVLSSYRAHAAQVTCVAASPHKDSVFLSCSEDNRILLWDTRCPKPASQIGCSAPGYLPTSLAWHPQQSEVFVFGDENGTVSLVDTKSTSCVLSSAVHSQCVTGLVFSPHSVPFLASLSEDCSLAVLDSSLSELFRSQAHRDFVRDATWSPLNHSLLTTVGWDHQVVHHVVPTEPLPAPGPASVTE
runDescription: PRMT5:MEP50 FlashPlate Assay (histone H4 peptide methylation)
Assay type: biochemical
experimentalParameters: IC50 + 2 μM MTA, plus 2 μM MTA, 40 nM H4 (1-15) peptide, 1 μM SAM
measurementLabel: IC50

The following compounds have reported results that may help.
compound	measurementLabel	result
Cn1c(N)nc2c(Nc3ncccn3)cccc21 [Example 1-78]	IC50	> 300 µM
CC(C)c1nc(Nc2cccc3c2nc(N)n3C)ns1 [Example 1-42]	IC50	> 300 µM

Proceeding to the next compound to report its IC50.
Exam item: Need IC50, item Cn1nccc1-c1ccc2c(c1)nc(N)n2C [Example 1-56]
Marked response: > 300 µM
